target: human V2 receptor (Homo sapiens); assay: In-vitro binding assay, 3H-arginine-8-vasopressin, V2 membranes; conditions: membrane containing human V2 receptor; 3H-vasopressin 0.65-0.75 nM
experimental readout: log10(IC50) (log10 of the value in nM)

{"compound": "COc1cc(C(=O)N2CCC3(CCN(C)C3=O)Cc3ccccc32)ccc1NC(=O)c1cc(F)ccc1Cl (stereo not shown)", "test value": 0.90}
{"compound": "O=C(Nc1ccc(C(=O)N2CCC3(CCNC3=O)Cc3ccccc32)cc1)c1ccccc1-c1ccccc1 (stereo not shown)", "test value": 1.26}
{"compound": "O=C(Nc1ccc(C(=O)N2CCC3(CCNC3=O)Cc3ccccc32)cc1)c1ccccc1F (stereo not shown)", "test value": 2.36}
{"compound": "CN1CCC2(CCN(C(=O)c3ccc(NC(=O)c4ccccc4-c4ccccc4)cc3)c3ccccc3C2)C1=O (stereo not shown)", "test value": 1.57}
{"compound": "CCN1CCCC2(CCN(C(=O)c3ccc(NC(=O)c4ccccc4-c4ccccc4)cc3)c3ccccc3C2)C1=O (stereo not shown)", "test value": 1.79}
{"compound": "O=C1CCCC2(CCN(C(=O)c3ccc(NC(=O)c4ccccc4-c4ccccc4)cc3)c3ccccc3C2)N1 (stereo not shown)", "test value": 2.36}
{"compound": "CN1CCCC2(CCN(C(=O)c3ccc(NC(=O)c4ccccc4-c4ccccc4)cc3)c3ccccc3C2)C1=O (stereo not shown)", "test value": 1.70}
{"compound": "Cc1ccc(F)cc1C(=O)Nc1ccc(C(=O)N2CCC3(CCNC3=O)Cc3ccccc32)cc1 (stereo not shown)", "test value": 1.95}
{"compound": "O=C(Nc1ccc(C(=O)N2CCC3(CCNC3=O)Cc3ccccc32)cc1)c1cc(F)ccc1Cl (stereo not shown)", "test value": 2.18}
{"compound": "Cc1ccc(F)cc1C(=O)Nc1ccc(C(=O)N2CCC3(CCNC3=O)Cc3ccccc32)cn1 (stereo not shown)", "test value": 1.97}

----------
target: human V2 receptor (Homo sapiens, UniProt P30518); experiment: V2 vasopressin receptor functional activity (cAMP accumulation, V2-HEK cells); format: cell-based; parameters: expressed in transfected cells; host or cells: HEK-293; settings: inhibition of vasopressin-stimulated cAMP accumulation in V2-HEK cells
Sequence (P30518 whole entry): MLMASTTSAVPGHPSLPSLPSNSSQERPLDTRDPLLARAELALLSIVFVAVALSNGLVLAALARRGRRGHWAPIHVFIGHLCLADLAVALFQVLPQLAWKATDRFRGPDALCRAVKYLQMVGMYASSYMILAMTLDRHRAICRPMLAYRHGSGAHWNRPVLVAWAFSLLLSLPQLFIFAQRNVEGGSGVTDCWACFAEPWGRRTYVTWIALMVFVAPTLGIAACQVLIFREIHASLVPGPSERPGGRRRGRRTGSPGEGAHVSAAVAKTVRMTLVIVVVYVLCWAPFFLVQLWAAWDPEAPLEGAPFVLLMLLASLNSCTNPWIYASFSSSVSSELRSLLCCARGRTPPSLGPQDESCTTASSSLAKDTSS
# Lookup of reported IC50 keyed by entry

{"molecule": "Cc1ccc(F)cc1C(=O)Nc1ccc(C(=O)N2CCC3(CCNC3=O)Cc3ccccc32)cn1 (centres unmarked)", "test system": "human V2 receptor (Homo sapiens, UniProt P30518)", "limit qualifier": "=", "IC50 / µM": 0.036}
{"molecule": "O=C1CCCC2(CCN(C(=O)c3ccc(NC(=O)c4ccccc4-c4ccccc4)cc3)c3ccccc3C2)N1 (centres unmarked)", "test system": "human V2 receptor (Homo sapiens, UniProt P30518)", "limit qualifier": "=", "IC50 / µM": 0.06}
{"molecule": "O=C(Nc1ccc(C(=O)N2CCC3(CCNC3=O)Cc3ccccc32)cc1)c1cc(F)ccc1Cl (centres unmarked)", "test system": "human V2 receptor (Homo sapiens, UniProt P30518)", "limit qualifier": "=", "IC50 / µM": 0.226}
{"molecule": "CCN1CCCC2(CCN(C(=O)c3ccc(NC(=O)c4ccccc4-c4ccccc4)cc3)c3ccccc3C2)C1=O (centres unmarked)", "test system": "human V2 receptor (Homo sapiens, UniProt P30518)", "limit qualifier": "=", "IC50 / µM": 0.132}
{"molecule": "CN1CCC2(CCN(C(=O)c3ccc(NC(=O)c4ccccc4-c4ccccc4)cc3)c3ccccc3C2)C1=O (centres unmarked)", "test system": "human V2 receptor (Homo sapiens, UniProt P30518)", "limit qualifier": "=", "IC50 / µM": 0.437}
{"molecule": "O=C(Nc1ccc(C(=O)N2CCC3(CCNC3=O)Cc3ccccc32)cc1)c1ccccc1-c1ccccc1 (centres unmarked)", "test system": "human V2 receptor (Homo sapiens, UniProt P30518)", "limit qualifier": "=", "IC50 / µM": 0.062}
{"molecule": "O=C(Nc1ccc(C(=O)N2CCC3(CCCNC3=O)Cc3ccccc32)cc1)c1ccccc1F (centres unmarked)", "test system": "human V2 receptor (Homo sapiens, UniProt P30518)", "limit qualifier": ">", "IC50 / µM": 3}
{"molecule": "O=C(Nc1ccc(C(=O)N2CCC3(CCCNC3=O)Cc3ccccc32)cc1)c1cc(F)ccc1Cl (centres unmarked)", "test system": "human V2 receptor (Homo sapiens, UniProt P30518)", "limit qualifier": "=", "IC50 / µM": 0.49}

Source: patent US7825111B2
